Overview of recorded %Inh for various compounds
Test system: NEK11
cond: concentration: 1 μM, replicates: in singlicate; n = 1;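 further: KINOMEscan kinase panel screen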

[
  {
    "molecule": "O=c1[nH]cc(-c2ccc(N3CCOCC3)cc2)c2sc(-c3cn[nH]c3)cc12",
    "measuredTarget": "NEK11",
    "%Inh": "0%"
  },
  {
    "molecule": "Cl.c1ccc(-c2ccc3c(Nc4ccc5[nH]ncc5c4)ccnc3c2)nc1",
    "measuredTarget": "NEK11",
    "%Inh": "0%"
  },
  {
    "molecule": "COc1cccc(-c2ccc3c(NC(=O)C4CC4)n[nH]c3n2)c1",
    "measuredTarget": "NEK11",
    "%Inh": "36%"
  }
]

###

Tested on: MAP3K4
cond: concentration: 1 μM, replicates: in singlicate; n = 1
Lab note: cut-off is 40%. Strictly less in %Inh is Met. Exactly 40% or more is Not met.

[
  {
    "compound": "COc1ccc(Nc2nccc(N3CCC(NC(=O)Nc4cccc(OC)c4)C3)n2)cc1 (centres unmarked) [GSK1379742]",
    "classLabel": "Met"
  },
  {
    "compound": "Cl.Cl.NCC(C(=O)Nc1cc(Br)c(-c2ccnc3[nH]ccc23)s1)c1ccccc1 (centres unmarked) [GSK1269851]",
    "classLabel": "Not met"
  },
  {
    "compound": "Cc1cccc(Nc2nc(N[C@H]3CCNC3)ncc2C(N)=O)c1.Cl [GSK2197149]",
    "classLabel": "Not met"
  },
  {
    "compound": "Nc1ncc(-c2ccc3nccc(-c4ccncc4)c3c2)cc1S(=O)(=O)N1CCOCC1 [GSK1627798]",
    "classLabel": "Met"
  },
  {
    "compound": "O=C(NC1CCN(c2ccnc(Nc3ccc(F)cc3)n2)C1)c1cc2ccccc2s1 (centres unmarked) [GSK1379716]",
    "classLabel": "Met"
  },
  {
    "compound": "COc1cc(Nc2nccc(-c3c(-c4cccc(NC(=O)c5c(F)cccc5F)c4)nn4ccccc34)n2)cc(OC)c1OC [GSK323521]",
    "classLabel": "Not met"
  },
  {
    "compound": "Cc1ccc(C(=O)N2CC[C@@H](O)C2)cc1-n1c(C)cc(OCc2ccc(F)cc2F)c(Br)c1=O",
    "classLabel": "Met"
  },
  {
    "compound": "Nc1ncc(-c2cccnc2)c2scc(-c3ccc4c(c3)CCN4C(=O)Cc3ccccc3)c12 [GSK683281]",
    "classLabel": "Not met"
  }
]

###

System: DYRK2
cond: concentration: 1 μM, replicates: in singlicate; n = 1
Tick condition met if %Inh is 10% or greater. Tick condition not met if %Inh is less than 10%.

[
  {
    "molecule": "Cn1cc(-c2ccc3c(c2)CCN3C(=O)Cc2cccc(F)c2)c2c(N)ncnc21",
    "classLabel": "condition not met"
  },
  {
    "molecule": "O=C(Nc1cccc(-c2nn3ccccc3c2-c2ccnc(Nc3cccc(C(F)(F)F)c3)n2)c1)c1c(F)cccc1F",
    "classLabel": "condition not met"
  },
  {
    "molecule": "O=C(Nc1n[nH]c2nc(-c3ccc(O)cc3)ccc12)C1CC1",
    "classLabel": "condition met"
  },
  {
    "molecule": "CC(=O)Nc1nc2cnc(Nc3cc(NC(=O)c4cccc(C5(C#N)CC5)c4Cl)ccc3C)nc2s1",
    "classLabel": "condition not met"
  },
  {
    "molecule": "CCn1c(-c2nonc2N)nc2c(C#CC(C)(C)O)ncc(OCCCCN)c21.O=C(O)C(F)(F)F.O=C(O)C(F)(F)F",
    "classLabel": "condition not met"
  },
  {
    "molecule": "CN(C)S(=O)(=O)c1cc(-c2ccc3nccc(-c4cccc(S(N)(=O)=O)c4)c3c2)cnc1N",
    "classLabel": "condition met"
  },
  {
    "molecule": "Cc1ccc(C(=O)Nc2ccc(Nc3ccnc4cc(-c5nccs5)ccc34)cc2O)cc1.Cl",
    "classLabel": "condition not met"
  },
  {
    "molecule": "CCn1c(-c2nonc2N)nc2c(C#CC(C)(C)O)nc(OC[C@H](N)c3ccccc3)cc21",
    "classLabel": "condition not met"
  },
  {
    "molecule": "COC(=O)Nc1nc2cc(Oc3ccc(NC(=O)Nc4cc(C(F)(F)F)ccc4F)cn3)ccc2[nH]1.Cl.Cl",
    "classLabel": "condition not met"
  },
  {
    "molecule": "CN1CCN(CCCNc2nccc(-c3c(-c4ccc(F)cc4)nn4cc(C(F)(F)F)ccc34)n2)CC1",
    "classLabel": "condition not met"
  },
  {
    "molecule": "O=C(Nc1cccc(Oc2ccc3nc(NC(=O)C4CC4)cn3n2)c1)c1ccccc1C(F)(F)F",
    "classLabel": "condition not met"
  },
  {
    "molecule": "FC(F)(F)c1ccc(/C=C/c2cncnc2Nc2ccc3[nH]c(Cc4ccccc4)nc3c2)cc1",
    "classLabel": "condition not met"
  },
  {
    "molecule": "COc1ccc(Nc2nccc(NCCNC(=O)c3cc4ccccc4s3)n2)cc1",
    "classLabel": "condition not met"
  },
  {
    "molecule": "Cl.Cl.NCC(NC(=O)c1cc(-c2ccccc2)c(-c2ccnc3[nH]ccc23)s1)c1ccccc1 (centres unmarked)",
    "classLabel": "condition met"
  },
  {
    "molecule": "COc1cc(Nc2nccc(N3CCC(NC(=O)c4cc5ccccc5s4)C3)n2)cc(OC)c1OC (centres unmarked)",
    "classLabel": "condition met"
  },
  {
    "molecule": "Nc1ncc(-c2cccnc2)c2scc(-c3ccc4c(c3)CCN4C(=O)Cc3ccccc3)c12",
    "classLabel": "condition met"
  },
  {
    "molecule": "C[C@@H]1CC[C@@H](C(=O)Nc2ccccc2)CN1c1cc(-c2ccc3c(N)n[nH]c3c2)nc(N)n1",
    "classLabel": "condition not met"
  },
  {
    "molecule": "Cl.NC(=O)c1cccc(Nc2nccc(Nc3ccc(Oc4c(Cl)cccc4Cl)c(Cl)c3)n2)c1",
    "classLabel": "condition not met"
  },
  {
    "molecule": "c1ccc(-c2cnc3nccnn23)cc1",
    "classLabel": "condition not met"
  },
  {
    "molecule": "COc1ccc(CNC(=O)NC2CCN(c3ccnc(Nc4ccc(F)cc4)n3)CC2)cc1",
    "classLabel": "condition not met"
  },
  {
    "molecule": "O=C(NC1CCN(c2ccnc(Nc3ccc(F)cc3)n2)C1)c1cc2ccccc2s1 (centres unmarked)",
    "classLabel": "condition not met"
  },
  {
    "molecule": "O=C(Nc1n[nH]c2cc(-c3ccoc3)ccc12)C1CC1",
    "classLabel": "condition met"
  },
  {
    "molecule": "Oc1cc(Nc2ccnc3cc(I)ccc23)ccc1F",
    "classLabel": "condition not met"
  },
  {
    "molecule": "O=C(Nc1cccc(-c2nn3ncccc3c2-c2ccnc(Nc3ccccc3)n2)c1)c1c(F)cccc1F",
    "classLabel": "condition met"
  },
  {
    "molecule": "Cc1ccc(C(=O)N2CC[C@@H](O)C2)cc1-n1c(C)cc(OCc2ccc(F)cc2F)c(Br)c1=O",
    "classLabel": "condition not met"
  },
  {
    "molecule": "Cc1ccc(F)c(C(=O)Nc2cccc(-c3nn4ccccc4c3-c3ccnc(Nc4cccc(F)c4)n3)c2)c1F",
    "classLabel": "condition not met"
  },
  {
    "molecule": "CCS(=O)(=O)c1ccc(OC)c(Nc2nccc(-c3c(-c4cccc(NC(=O)c5c(F)cccc5F)c4)nn4ncccc34)n2)c1",
    "classLabel": "condition met"
  },
  {
    "molecule": "Cc1cccc(NC(=O)Nc2ccc(Oc3ncnc4ccn(C)c34)cc2)c1",
    "classLabel": "condition not met"
  },
  {
    "molecule": "O=C(Nc1cccc(-c2nn3ccccc3c2-c2ccnc(Nc3cccc(F)c3)n2)c1)c1c(F)ccc(F)c1Cl",
    "classLabel": "condition met"
  },
  {
    "molecule": "CC(C)(C)c1ccc2nccc(Nc3cccc(O)c3)c2c1",
    "classLabel": "condition met"
  },
  {
    "molecule": "COc1cc2c(cc1OCCN1CCNCC1)ncc1c3ccc(C#N)cc3[nH]c21",
    "classLabel": "condition met"
  },
  {
    "molecule": "Clc1ccc(-c2nn3ncccc3c2-c2ccnc(Nc3ccc4c(c3)OCCO4)n2)cc1",
    "classLabel": "condition not met"
  },
  {
    "molecule": "COc1ccc(Nc2nccc(N3CCC(NC(=O)Nc4cccc(OC)c4)C3)n2)cc1 (centres unmarked)",
    "classLabel": "condition not met"
  },
  {
    "molecule": "COc1ccc(-c2coc3ccc(-c4nnc(SCc5ccc(OC)c(C(F)(F)F)c5)o4)cc23)cc1",
    "classLabel": "condition met"
  },
  {
    "molecule": "Cl.Cl.NCC(C(=O)Nc1cc(Br)c(-c2ccnc3[nH]ccc23)s1)c1ccccc1 (centres unmarked)",
    "classLabel": "condition met"
  }
]

Recorded values, source paper PMC5540273.
